Target: rabbit reticulocyte 15-LO (Oryctolagus cuniculus)
Construct: Fifteen-lipoxygenase was obtained from phenylhydrazine-treated rabbits and purified per the method of Rapoport; from tissue; host or cells: reticulocytes of phenylhydrazine-treated rabbits
Assay: Rabbit Reticulocyte 15-LO Assay (h15LO)
Format: biochemical
Conditions: Table 2; 2U rabbit reticulocyte 15-LO, 174 μM linoleic acid, 15 minutes at 4° C.
Kindly supply the reported IC50 values for the records listed here.
Answers are plain numbers, in nM.

Find the measured IC50 of `COc1ccc(C(=O)Nc2ccccc2)cc1NS(=O)(=O)c1cccc2ccccc12` and report it. 58

I need IC50 for every entry listed below, if you could help.
1. COc1ccc(C(=O)Nc2ccccc2)cc1NC(=S)Nc1cccc(C(C)=O)c1
2. COc1ccc(C(=O)Nc2ccc(Cl)c(Cl)c2)cc1NC(=S)Nc1cc(Cl)cc(Cl)c1

1: 48; 2: 19

----------
Target: rabbit reticulocyte 15-LO (Oryctolagus cuniculus, UniProt P12530)
Construct: Fifteen-lipoxygenase was obtained from phenylhydrazine-treated rabbits and purified per the method of Rapoport; from tissue; host or cells: reticulocytes of phenylhydrazine-treated rabbits
Assay: Rabbit Reticulocyte 15-LO Assay (h15LO)
Format: biochemical
Details: Table 1; 2U rabbit reticulocyte 15-LO, 174 μM linoleic acid, 15 minutes at 4° C.
MEASURE_NAME: IC50 (nM)
Give bare numbers, in nM.

Solved entries (count: 2):
Find the measured IC50 of COc1ccc(C(=O)Nc2cccc(Cl)c2)cc1N [Example 16] and report it. 79

Find the measured IC50 of COc1ccc(C(=O)Nc2ccc(C)c(Cl)c2)cc1N [Example 12] and report it. 73

New cases:
Find the measured IC50 of COc1ccc(NC(=O)c2ccc(Cl)c(Cl)c2)cc1N [Example 23] and report it. 26

----------
Molecular target: rabbit reticulocyte 15-LO (Oryctolagus cuniculus)
Construct: Fifteen-lipoxygenase was obtained from phenylhydrazine-treated rabbits and purified per the method of Rapoport; from tissue; host or cells: reticulocytes of phenylhydrazine-treated rabbits
Assay: Rabbit Reticulocyte 15-LO Assay (h15LO)
Type: biochemical
Conditions: Table 2; concentration not given
Mark 0.0 for h15LO, value given as bare % values under 80%, and 1.0 for everything at or above.

Hi, just wondering whether `COc1ccc(NC(=O)Nc2ccc(Cl)c(Cl)c2)cc1NC(=S)Nc1ccc(Cl)c([N+](=O)[O-])c1` shows h15LO, value given as bare % of 80% or higher. 0.0

Hi, just wondering whether `COC(=O)c1cccc(NC(=S)Nc2cc(NC(=O)Nc3ccc(Cl)c(Cl)c3)ccc2OC)c1` shows h15LO, value given as bare % of 80% or higher. 1.0

Hi, just wondering whether `COC(=O)c1cccc(NC(=O)c2ccc(OC)c(Nc3cccc(C(F)(F)F)c3)c2)c1` shows h15LO, value given as bare % of 80% or higher. 1.0

Hi, just wondering whether `COc1ccc(C(=O)Nc2ccccc2)cc1NC(=S)Nc1cccc([N+](=O)[O-])c1` shows h15LO, value given as bare % of 80% or higher. 0.0

Hi, just wondering whether `COc1ccc(C(=O)Nc2ccccc2)cc1NCc1ccc(C)cc1` shows h15LO, value given as bare % of 80% or higher. 0.0

Hi, just wondering whether `COc1ccc(C(=O)Nc2ccc(F)cc2)cc1NS(=O)(=O)c1cccc(C#N)c1` shows h15LO, value given as bare % of 80% or higher. 1.0

Hi, just wondering whether `CCCOc1ccc(CNc2cc(C(=O)Nc3ccccc3)ccc2OC)cc1` shows h15LO, value given as bare % of 80% or higher. 0.0

Hi, just wondering whether `COc1ccc(C(=O)Nc2ccccc2)cc1NCc1ccc(O)c([N+](=O)[O-])c1` shows h15LO, value given as bare % of 80% or higher. 1.0

Hi, just wondering whether `COc1ccc(NC(=O)c2ccc(F)c(F)c2)cc1NS(=O)(=O)c1cccc(N)c1` shows h15LO, value given as bare % of 80% or higher. 1.0

Hi, just wondering whether `O=C(Nc1ccc(F)c(NC(=S)Nc2cc(Cl)cc(Cl)c2)c1)c1ccc(F)c(F)c1` shows h15LO, value given as bare % of 80% or higher. 1.0

----------
Biological target: rabbit reticulocyte 15-LO (Oryctolagus cuniculus)
Construct: Fifteen-lipoxygenase was obtained from phenylhydrazine-treated rabbits and purified per the method of Rapoport; from tissue; host or cells: reticulocytes of phenylhydrazine-treated rabbits
Sequence (P12530 1-663): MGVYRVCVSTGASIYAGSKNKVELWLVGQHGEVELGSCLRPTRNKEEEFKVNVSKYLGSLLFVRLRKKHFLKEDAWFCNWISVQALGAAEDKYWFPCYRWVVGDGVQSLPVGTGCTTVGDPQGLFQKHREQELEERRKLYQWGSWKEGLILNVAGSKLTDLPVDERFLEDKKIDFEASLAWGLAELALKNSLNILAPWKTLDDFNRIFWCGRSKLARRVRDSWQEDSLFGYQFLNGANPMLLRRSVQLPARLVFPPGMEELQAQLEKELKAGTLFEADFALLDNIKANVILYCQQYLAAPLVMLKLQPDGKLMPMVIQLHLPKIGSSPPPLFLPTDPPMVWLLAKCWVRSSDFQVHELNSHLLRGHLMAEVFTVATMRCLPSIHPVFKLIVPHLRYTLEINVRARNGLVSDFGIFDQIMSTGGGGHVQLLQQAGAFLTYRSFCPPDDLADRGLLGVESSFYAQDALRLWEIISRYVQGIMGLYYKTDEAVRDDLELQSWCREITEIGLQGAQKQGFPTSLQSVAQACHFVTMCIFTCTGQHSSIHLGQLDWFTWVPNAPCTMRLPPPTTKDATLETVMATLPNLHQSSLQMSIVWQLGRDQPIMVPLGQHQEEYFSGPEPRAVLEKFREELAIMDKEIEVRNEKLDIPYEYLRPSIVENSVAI
Assay: Rabbit Reticulocyte 15-LO Assay (h15LO)
Format: biochemical
Conditions: Table 2; 2U rabbit reticulocyte 15-LO, 174 μM linoleic acid, 15 minutes at 4° C.
Experimental: Rabbit Reticulocyte 15-LO Assay (h15LO) The present 15-LO assay takes advantage of the ability of 15-LO to oxidize the fatty acid linoleic acid to the hydroperoxy fatty acid 13-(S)HPODE, resulting in the formation of a conjugated diene. The 15-LO inhibitors are incubated with 15-LO enzyme in the presence of linoleic acid substrate. […] 13-HPODE is quantitated by comparing peak areas of individual samples with those from a standard curve generated using authentic 13-HODE. […]
MEASURE_NAME: IC50 (nM)
One number for each entry, in nM.

Solved entries (count: 2):
Please report the measured IC50 for COc1ccc(C(=O)Nc2cccnc2)cc1Nc1cccc(C(F)(F)F)c1 [Example 45] tested on rabbit reticulocyte 15-LO (Oryctolagus cuniculus). 440

Please report the measured IC50 for COc1ccc(NC(=O)c2ccc(O)c(Nc3cc(Cl)cc(Cl)c3)c2)cc1 [Example 57] tested on rabbit reticulocyte 15-LO (Oryctolagus cuniculus). 165

New cases:
Please report the measured IC50 for O=C(Nc1ccccc1)c1ccc(O)c(Nc2cc(Cl)cc(Cl)c2)c1 [Example 56] tested on rabbit reticulocyte 15-LO (Oryctolagus cuniculus). 18
